Each recorded value in this set is attributed to patent US20230100062A1.

Experiment Notes: Hemolysis assay
Type: cell-based, human
Assay Conditions: human, human erythrocytes, 10% (vol/vol) suspension, pH 7.2
Ends that are not written are not given here. * marks the point of attachment. For = O=C*
Measure Name: HC50 at 1 h (µg/mL)
The answer is to be given in µg/mL; state only the numeric part.

Ask: Return the recorded HC50 at 1 h value; entry: MAAFMKLIQFLATKGQKYVSLAWK-NH2 [α1α2]
Result: 150

Ask: Fill in reported HC50 at 1 h for this entry: KYVSLAWKHKGTILKWINAGQSFEWIYKQIKKLWA-NH2 [α2α3α4]
Result: 200

Ask: Consider the substance For-MAAFMKLIQFLATKGQKYVSLAWKHKGTILKWINAGQSFEWIYKQIKKLWA [NI01, epidermicin NI01] and give its recorded HC50 at 1 h.
Result: 500

Ask: Recall and state the measured HC50 at 1 h for MAAFMRLIQFLATRGQRYVSLAWRRRGTILRWINAGQSFEWIYRQIRRLWA-NH2 [NI01 R-mutant] .
Result: 250

Ask: For H-MAAFMKLIQFLATKGQKYVSLAWKHKGTILKWIN-NH2 [α1α2α3] , write its HC50 at 1 h.
Result: 200

Ask: Read the entry KGTILKWINAGQSFEWIYKQIKKLWA-NH2 [α3α4] and write its reported HC50 at 1 h.
Result: 150
